System: IGROV1 ovarian
Assay: NCI tumour cell line growth inhibition, 48 h; in the data active = GI50 below about 0.43 µM; inactive = the rest
Just give me one of these, please: YES for active, NO for inactive

These recorded examples may help you get a feel for the data.
COMPOUND	ASSIGNED LABEL
COc1cc(-c2nc(-c3nnc(-c4ccc(F)c(Cl)c4)o3)c3ccccn23)cc(OC)c1OC	NO
COc1cccc2c1nc1cccc(OC)c1[n+]2[O-]	NO
O=S(=O)(CC#CCCCOCC#Cc1ccccc1C#CCS(=O)(=O)c1ccccc1)c1ccccc1	NO
Cc1ccc(Nc2[nH]c(C(=O)c3ccc(Cl)cc3)c(N)c2C(=S)Nc2ccccc2)nc1	NO
C[n+]1c2cc(N)ccc2cc2ccc(N)cc21 (tested in a mixture with another compound)	YES

Identify the outcome logged in this assay for the compound shown: "CC(C)(C)OC(=O)N1CC(Cn2cc(C(F)(F)F)c3c(Cl)ncnc32)C1"
NO

Could you do the same for "COc1nc2c(cc1S(=O)(=O)c1ccccc1)CCc1c-2cnn1Cc1ccccc1" , please?
NO

"C[C@@H]1[C@H]2[C@H](C=C3[C@@H]4CC[C@H]5Cc6nc7c(nc6C[C@]5(C)[C@H]4C[C@@H](O)[C@@]32C)C[C@@H]2CC[C@H]3C4=C[C@@H]5O[C@@]6(CC[C@](C)(CO)O6)[C@@H](C)[C@@]5(O)[C@@]4(C)[C@H](O)C[C@@H]3[C@@]2(C)C7)O[C@]12CCC(C)(C)O2" , same question.
NO

Param item: CC(N)(Cc1c[nH]c2ccccc12)C(=O)O (centres undefined)
NO

---

Test system: NCI-H23 lung
Assay: NCI tumour cell line growth inhibition, 48 h
MEASURED PARAMETER: TGI (µM)
State the answer as a number, implicitly in µM.

As a guide, the following entries are already answered.
MOLECULE	MEASUREMENT UNIT	TGI
COc1cc2cn3c4ccc(O)cc4nc(N)c3c2cc1OC	µM	4.88
CCCCCCCCCCCCOC1C(CNCC2OC3OC(C)(C)OC3C2NC(=O)Nc2ccc(C(F)(F)F)cc2)OC2OC(C)(C)OC21 (stereo not drawn)	µM	19
C[n+]1c2cc(N)ccc2cc2ccc(N)cc21 (tested in a mixture with another compound)	µM	1.43

Which measured TGI value corresponds to COc1cc(/C=C2\CCCC3C2=Nc2ccccc2NC3c2cc(OC)c(OC)c(OC)c2)cc(OC)c1OC (stereo not drawn) ?
13.8

Could you do the same for "COc1cc(OC)cc(-c2ccc(-c3ccc(C(=N)N)s3)s2)c1" , please?
3.34

Next molecule: Clc1ccccc1C1N2CCCCC2[C@@H]2c3[nH]c4ccccc4c3CCN12 (stereo partly drawn)
45.6

What would you report for "CC(C)(C)OC(=O)N1CC(Cn2cc(C(F)(F)F)c3c(Cl)ncnc32)C1" ?
3.58

---

System: SW-620 colon
Test: NCI tumour cell line growth inhibition, 48 h
MEASURED PARAMETER: TGI

Take a look at these entries with their results.
MOLECULE	MEASUREMENT TARGET	TGI
Cc1cc(Cl)ccc1NC(=O)C(=O)Cc1ccc([N+](=O)[O-])c([N+](=O)[O-])c1CC(=O)C(=O)Nc1ccc(Cl)cc1C	SW-620 colon	> 100 µM
CC(C)(O)/C=C\P(C)(=O)c1ccccc1 (stereo not given)	SW-620 colon	> 100 µM
C/C1=N\NC(=O)c2ccccc2C(=O)N/N=C(\C)c2cccc1n2.O=[N+]([O-])[O-].[Zn+2]	SW-620 colon	> 100 µM
CCCC(=O)OCC1(CO)C/C(=C/CC(C(C)C)C(C)C)C(=O)O1 (stereo not given)	SW-620 colon	> 100 µM

Below: the item to evaluate.
Report TGI for "CCOC(=O)c1ccc(NC(=O)O/N=C(/Cl)C(C)C)cc1" please.
4.32 µM
